molecular target: 11 β-HSD type 2 (Rattus norvegicus); construct: Both the kidneys and livers were homogenised on ice in PBS-sucrose buffer; tissue Harlan Olac (rats); host or cells: Wistar rat kidney homogenate supernatant; assay: 11 β-HSD type 2 inhibition, rat kidney homogenate, conversion F to E (radiometric TLC); type: biochemical; details: read-out: % inhibition of 11β HSD2 @ 10 μM, typical sd ± 5%, means n=2
Sequence (P50233 whole entry): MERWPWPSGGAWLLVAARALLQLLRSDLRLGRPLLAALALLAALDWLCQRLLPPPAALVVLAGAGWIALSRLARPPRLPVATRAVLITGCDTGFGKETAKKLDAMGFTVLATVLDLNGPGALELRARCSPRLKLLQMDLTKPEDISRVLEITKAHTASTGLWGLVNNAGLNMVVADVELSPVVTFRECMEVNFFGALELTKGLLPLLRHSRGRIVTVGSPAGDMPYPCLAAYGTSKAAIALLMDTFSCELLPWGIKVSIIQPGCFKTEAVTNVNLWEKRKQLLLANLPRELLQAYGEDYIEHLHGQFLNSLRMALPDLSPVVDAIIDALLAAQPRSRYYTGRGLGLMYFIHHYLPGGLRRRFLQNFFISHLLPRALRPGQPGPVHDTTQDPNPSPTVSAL
Threshold rule: inhibition at 10 µM greater than or equal to 8% is TRUE; below that, FALSE.

INSERT INTO assay_data (compound, system_tested, answer_label) VALUES
  ('Cc1nc2cc(N(C)S(=O)(=O)c3cccc(Cl)c3C)ccc2s1 [compound 469]', '11 β-HSD type 2 (Rattus norvegicus)', 'TRUE'),
  ('Cc1nc2cc(NS(=O)(=O)c3ccccc3C#N)ccc2s1 [compound 583]', '11 β-HSD type 2 (Rattus norvegicus)', 'FALSE'),
  ('Cc1c(Cl)cccc1S(=O)(=O)Nc1ccc2[nH]c(=O)sc2c1 [compound 753]', '11 β-HSD type 2 (Rattus norvegicus)', 'FALSE'),
  ('CC(=O)c1ccccc1S(=O)(=O)N(c1ccc2sc(C)nc2c1)S(=O)(=O)c1ccccc1C(C)=O [compound 730]', '11 β-HSD type 2 (Rattus norvegicus)', 'TRUE'),
  ('COCCSc1nc2ccc(NS(=O)(=O)c3cccc(Cl)c3C)cc2s1 [compound 754]', '11 β-HSD type 2 (Rattus norvegicus)', 'FALSE'),
  ('Cc1nc2cc(NS(=O)(=O)c3ccc(Oc4ccccc4)cc3)ccc2s1 [compound 585]', '11 β-HSD type 2 (Rattus norvegicus)', 'FALSE'),
  ('CCSc1nc2ccc(NS(=O)(=O)c3cccc(Cl)c3C)cc2s1 [compound 751]', '11 β-HSD type 2 (Rattus norvegicus)', 'FALSE'),
  ('Cc1nc2cc(NS(=O)(=O)c3ccc(Cl)cc3Cl)ccc2s1 [compound 412]', '11 β-HSD type 2 (Rattus norvegicus)', 'FALSE'),
  ('COc1c(C)c(C)c(S(=O)(=O)Nc2ccc3sc(C)nc3c2)c(C)c1C [compound 708]', '11 β-HSD type 2 (Rattus norvegicus)', 'TRUE'),
  ('Cc1nc2cc(NS(=O)(=O)c3c(C(C)C)cc(C(C)C)cc3C(C)C)ccc2s1 [compound 703]', '11 β-HSD type 2 (Rattus norvegicus)', 'FALSE'),
  ('Cc1nc2cc(NS(=O)(=O)c3ccc(-c4ccccc4)cc3)ccc2s1 [compound 521]', '11 β-HSD type 2 (Rattus norvegicus)', 'FALSE'),
  ('COc1ccc(Cl)cc1S(=O)(=O)Nc1ccc2sc(C)nc2c1 [compound 582]', '11 β-HSD type 2 (Rattus norvegicus)', 'FALSE'),
  ('CCN(c1ccc2sc(C)nc2c1)S(=O)(=O)c1cccc(Cl)c1C [compound 470]', '11 β-HSD type 2 (Rattus norvegicus)', 'TRUE'),
  ('Cc1nc2cc(NS(=O)(=O)c3c(C)c(C)c(C)c(C)c3C)ccc2s1 [compound 710]', '11 β-HSD type 2 (Rattus norvegicus)', 'TRUE'),
  ('COc1cc(C)ccc1S(=O)(=O)Nc1ccc2sc(C)nc2c1 [compound 584]', '11 β-HSD type 2 (Rattus norvegicus)', 'TRUE'),
  ('Cc1c(Cl)cccc1S(=O)(=O)Nc1ccc2ncsc2c1 [compound 750]', '11 β-HSD type 2 (Rattus norvegicus)', 'TRUE'),
  ('CCOC(=O)CSc1nc2ccc(NS(=O)(=O)c3cccc(Cl)c3C)cc2s1 [compound 752]', '11 β-HSD type 2 (Rattus norvegicus)', 'FALSE'),
  ('Cc1nc2cc(NS(=O)(=O)c3ccc(C(C)C)cc3)ccc2s1 [compound 704]', '11 β-HSD type 2 (Rattus norvegicus)', 'FALSE'),
  ('COc1ccc(S(=O)(=O)Nc2ccc3sc(C)nc3c2)cc1OC [compound 707]', '11 β-HSD type 2 (Rattus norvegicus)', 'TRUE'),
  ('Cc1nc2cc(N(S(=O)(=O)c3ccccc3C#N)S(=O)(=O)c3ccccc3C#N)ccc2s1 [compound 731]', '11 β-HSD type 2 (Rattus norvegicus)', 'TRUE'),
  ('Cc1nc2cc(NS(=O)(=O)c3cccc(Cl)c3C)ccc2s1 [compound 413]', '11 β-HSD type 2 (Rattus norvegicus)', 'FALSE'),
  ('CC(=O)Nc1ccc(S(=O)(=O)Nc2ccc3sc(C)nc3c2)cc1 [compound 711]', '11 β-HSD type 2 (Rattus norvegicus)', 'FALSE'),
  ('Cc1nc2cc(NS(=O)(=O)c3ccc(C(C)(C)C)cc3)ccc2s1 [compound 709]', '11 β-HSD type 2 (Rattus norvegicus)', 'TRUE'),
  ('Cc1nc2cc(NS(=O)(=O)c3c(Cl)cc(Cl)cc3Cl)ccc2s1 [compound 522]', '11 β-HSD type 2 (Rattus norvegicus)', 'FALSE'),
  ('COc1ccc(S(=O)(=O)Nc2ccc3sc(C)nc3c2)cc1 [compound 424]', '11 β-HSD type 2 (Rattus norvegicus)', 'FALSE'),
  ('COC(=O)c1ccccc1S(=O)(=O)Nc1ccc2sc(C)nc2c1 [compound 705]', '11 β-HSD type 2 (Rattus norvegicus)', 'FALSE'),
  ('Cc1nc2cc(NS(=O)(=O)c3cccc4c(N(C)C)cccc34)ccc2s1 [compound 554]', '11 β-HSD type 2 (Rattus norvegicus)', 'TRUE'),
  ('Cc1nc2cc(NS(=O)(=O)c3c(C)cccc3Cl)ccc2s1 [compound 425]', '11 β-HSD type 2 (Rattus norvegicus)', 'FALSE'),
  ('Cc1nc2cc(NS(=O)(=O)c3ccc4c(c3)CN(C(=O)C(F)(F)F)CC4)ccc2s1 [compound 581]', '11 β-HSD type 2 (Rattus norvegicus)', 'TRUE'),
  ('Cc1nc2cc(NS(=O)(=O)c3cc(Cl)ccc3Cl)ccc2s1 [compound 580]', '11 β-HSD type 2 (Rattus norvegicus)', 'FALSE'),
  ('CC(=O)c1ccccc1S(=O)(=O)Nc1ccc2sc(C)nc2c1 [compound 701]', '11 β-HSD type 2 (Rattus norvegicus)', 'TRUE'),
  ('Cc1nc2cc(NS(=O)(=O)c3cccc4ccccc34)ccc2s1 [compound 553]', '11 β-HSD type 2 (Rattus norvegicus)', 'TRUE'),
  ('Cc1nc2cc(NS(=O)(=O)c3c(C)c(C)cc(C)c3C)ccc2s1 [compound 706]', '11 β-HSD type 2 (Rattus norvegicus)', 'FALSE');
